Hi there, I'd appreciate the recorded GI50 for every entry that follows.
test system: HT-29; assay: NCI tumour cell line growth inhibition, 48 h
Activity calls are given as the source filed them. No stated cut-off is given here; in the data, active = GI50 up to about 1.1 µM and inactive = higher.

IN: In one line, give reported GI50 of the entry `CNC(=O)c1nn[nH]c1Sc1c([N+](=O)[O-])ncn1C` .
OUT: > 100 µM (inactive)

IN: In one line, give reported GI50 of the entry `CCN(CC)CCSc1c2ccccc2nc2c(OC)ccc(OC)c12` .
OUT: 4.59 µM (inactive)

IN: In one line, give reported GI50 of the entry O=C1C2=C(c3ccccc31)C(c1ccccc1)N1C(=O)CSC1=N2 (stereo not drawn) .
OUT: 43.4 µM (inactive)

IN: In one line, give reported GI50 of the entry CSc1nc2c(nc(N)n2C2OC(CO)C(O)C(O)C2O)c(=O)[nH]1 (stereo not drawn) .
OUT: > 100 µM (inactive)

IN: In one line, give reported GI50 of the entry `CC(=O)n1[nH]c(=O)n(-c2ccccc2)c1=O` .
OUT: > 100 µM (inactive)

IN: In one line, give reported GI50 of the entry `O=C1C=CC(=O)C1(Br)Br` .
OUT: 7.38 µM (inactive)

IN: In one line, give reported GI50 of the entry `COc1ccccc1-c1cc(=O)c2cc(C)c(C)c(C(=O)O)c2o1` .
OUT: > 100 µM (inactive)

IN: In one line, give reported GI50 of the entry Cc1c(N)nc([C@H](CC(N)=O)NC[C@H](N)C(N)=O)nc1C(=O)N[C@H](C(=O)N[C@H](C)[C@@H](O)CC(=O)N[C@H](C(=O)NC(O[C@@H]1O[C@@H](C)[C@@H](N)[C@@H](O)[C@H]1O)C(O)c1nc(-c2nc(C(=O)NCCC[S+](C)C)cs2)cs1)[C@@H](C)O)[C@H](O[C@@H]1O[C@@H](CO)[C@@H](O)[C@H](O)[C@@H]1O[C@H]1O[C@H](CO)[C@@H](O)[C@H](OC(N)=O)[C@@H]1O)c1c[nH]cn1 (stereo partly drawn) .
OUT: 82.8 µM (inactive)

###

system: SW-620; experiment: NCI tumour cell line growth inhibition, 48 h
Activity calls are given as the source filed them. Cut-off read from the data, not from the text of the source: active = GI50 up to about 1.1 µM and inactive = higher.
Hi there, I'd appreciate the recorded GI50 for every entry that follows.

IN: In one line, give reported GI50 of the entry `CCOC(=O)c1nc2cc(C(F)(F)F)ccc2nc1Nc1cc(OC)c(OC)c(OC)c1` .
OUT: > 100 µM (inactive)

IN: In one line, give reported GI50 of the entry `CN(/N=C/c1ccccc1O)c1ccc2ccccc2n1` .
OUT: 42.3 µM (inactive)

IN: In one line, give reported GI50 of the entry `Cc1c(CNc2ccc(Cl)c(Cl)c2Cl)cnc2nc(N)nc(N)c12` .
OUT: 0.179 µM (active)

IN: In one line, give reported GI50 of the entry CC(C)(C)C1=NN=C2c3ccccc3C(=O)C21 (stereo unspecified) .
OUT: 65.6 µM (inactive)

IN: In one line, give reported GI50 of the entry `Cc1nc2cc(Nc3ccccc3C(=O)O)ccc2s1` .
OUT: > 100 µM (inactive)

IN: In one line, give reported GI50 of the entry CCc1c(Cc2cccc3ccccc23)n2c(nc1=O)SCC2OCCO (stereo unspecified) .
OUT: 70.5 µM (inactive)

IN: In one line, give reported GI50 of the entry `COC(=O)C1=CNC(C(=O)OC)=NN1` .
OUT: > 100 µM (inactive)

IN: In one line, give reported GI50 of the entry `O=[N+]([O-])/C(C(Cl)=C(Cl)Cl)=C(/Sc1ccccc1)N1CCOCC1` .
OUT: 2.26 µM (inactive)

IN: In one line, give reported GI50 of the entry `CCOC(=O)c1cnc2oc3ccc(O)cc3c2c1-c1ccccc1` .
OUT: > 100 µM (inactive)

IN: In one line, give reported GI50 of the entry `CCCCCCOC(=O)/C=C/[C@]1(CO)C/C(=C/CC(C(C)C)C(C)C)C(=O)O1` .
OUT: 12.5 µM (inactive)

IN: In one line, give reported GI50 of the entry Cc1cc(S(=O)(=O)O)c(NC(=O)C(=O)C2C=CCS2(=O)=O)cc1Cl (stereo unspecified) .
OUT: > 100 µM (inactive)

###

system: 786-0; test: NCI tumour cell line growth inhibition, 48 h
Activity calls are given as the source filed them. Rule as the data show it: active = GI50 up to about 1.1 µM and inactive = higher.
Returns: one label drawn from 1 (active), -1 (inactive)

IN: Just curious, what result did `S=C1N=C(Cl)/C(=C\c2ccco2)N1` get here?
OUT: -1

IN: Just curious, what result did `COCN1C(=O)[C@@H]2CCCN2C(=O)c2ccc(Cl)cc21` get here?
OUT: -1

IN: Just curious, what result did `CC(C)(C)OC(=O)N1[C@@H]2Cc3ccc(N)cc3[C@@]1(C)c1ccccc12` get here?
OUT: -1

IN: Just curious, what result did CC1=C(C#N)C(=O)CC(c2ccc(Cl)cc2)N(C)N1 (stereo not drawn) get here?
OUT: -1

IN: Just curious, what result did `COc1cc(/C=C2\S/C(=N/Nc3nc(-c4ccc(Br)cc4)cs3)NC2=O)cc(OC)c1OC` get here?
OUT: -1

IN: Just curious, what result did `CC(=O)O[C@H]1C(=O)O[C@@H]2C[C@H]3C(C)=CC(=O)[C@@H](O)[C@]3(C)[C@H]3[C@@]4(O)OC[C@]32[C@@H]1[C@@H](C)[C@H]4O` get here?
OUT: 1

IN: Just curious, what result did CC(C)C(Sc1nc(-c2ccccc2)c(-c2ccccc2)[nH]1)C(=O)NNC(=S)Nc1ccccc1 (stereo not drawn) get here?
OUT: -1

IN: Just curious, what result did CC1=NN(C(=O)CC(=O)Nc2cccc(Cl)c2)C(=O)C1/N=N\c1ccc(S(=O)(=O)c2ccc(/N=N/C3C(=O)N(C(=O)CC(=O)Nc4cccc(Cl)c4)N=C3C)cc2)cc1 (stereo not drawn) get here?
OUT: -1

###

tested on: NCI/ADR-RES; assay: NCI tumour cell line growth inhibition, 48 h
Activity calls are given as the source filed them. No stated cut-off is given here; in the data, active = GI50 up to about 1.1 µM and inactive = higher.
Hi there, I'd appreciate the recorded GI50 for every entry that follows.

IN: In one line, give reported GI50 of the entry `N#Cc1c(-c2ccc([N+](=O)[O-])cc2)c(C#N)c(=O)n(NS(=O)(=O)c2ccccc2)c1S` .
OUT: 50.6 µM (inactive)

IN: In one line, give reported GI50 of the entry `O=C1C=CC(=O)C1(Br)Br` .
OUT: 20.7 µM (inactive)

IN: In one line, give reported GI50 of the entry `Cc1ccc(-n2cnc3c(N/N=C4\SCC(=O)N4c4ccccc4)ncnc32)cc1` .
OUT: 8.36 µM (inactive)

IN: In one line, give reported GI50 of the entry CC(=O)N1N=C(c2ccc3ccccc3c2O)CC1c1cccs1 (stereo not given) .
OUT: 13.6 µM (inactive)

IN: In one line, give reported GI50 of the entry `Cn1c(COC(=O)NC2CCCCC2)c(COC(=O)NC2CCCCC2)c2ccc3cc(C=O)ccc3c21` .
OUT: > 100 µM (inactive)

IN: In one line, give reported GI50 of the entry `O=C1Nc2cccc(Cl)c2/C1=C\c1c(-c2ccccc2)nc2n1CCS2` .
OUT: 16.3 µM (inactive)

IN: In one line, give reported GI50 of the entry O=c1[nH]c(=O)n(C2CC(O)C(CO)O2)cc1OCCc1ccccc1 (stereo not given) .
OUT: > 100 µM (inactive)

IN: In one line, give reported GI50 of the entry `[O-][N+]1=[N+]([O-])[C@@H](c2ccccc2)[C@H]1c1ccccc1` .
OUT: 17.5 µM (inactive)

IN: In one line, give reported GI50 of the entry `O=C1Cc2c(-c3ccccc3)cc(-c3ccccc3)nc2-c2ccccc2N1` .
OUT: 3.61 µM (inactive)

IN: In one line, give reported GI50 of the entry `CCOC(=O)c1nc2cc(C(F)(F)F)ccc2nc1Nc1cc(OC)c(OC)c(OC)c1` .
OUT: > 100 µM (inactive)

###

system: SN12C; test: NCI tumour cell line growth inhibition, 48 h
Calls of active or inactive are those of the source. Rule as the data show it: active = GI50 up to about 1.1 µM and inactive = higher. Where a SMILES comes first, the peptide text is derived from it. The star is where a group is joined. Cbz = O=C(OCc1ccccc1)*
Measurement Name: GI50

IN: In one line, give reported GI50 of the entry `CC1=C(C(=O)Nc2cc(=O)n(C)c(=O)n2C)C(c2ccc([N+](=O)[O-])cc2)C(C(=O)Nc2cc(=O)n(C)c(=O)n2C)=C(C)N1` .
OUT: > 100 µM (inactive)

IN: In one line, give reported GI50 of the entry O=C1CSC(C(/N=N/c2ccc(Cl)cc2)c2nc3ccccc3[nH]2)=N1 (centres undefined) .
OUT: > 100 µM (inactive)

IN: In one line, give reported GI50 of the entry `O=c1/c(=C/c2ccc([N+](=O)[O-])o2)sc2n1[C@@H](c1ccc(Cl)cc1)C=C(c1cc(F)c(Cl)cc1Cl)N=2` .
OUT: 5.5 µM (inactive)

IN: In one line, give reported GI50 of the entry CCCCCCCCCCCCCCCC1(OC)C[N+](C)(C)CCO1 (centres undefined) .
OUT: 1.66 µM (inactive)

IN: In one line, give reported GI50 of the entry `Cc1csc(NNC(=O)Nc2ccccc2)n1` .
OUT: > 100 µM (inactive)

IN: In one line, give reported GI50 of the entry `O=c1[nH]nc(N/N=C\c2ccc(Cl)cc2)c2ccccc12` .
OUT: 27.5 µM (inactive)

IN: In one line, give reported GI50 of the entry CCOC(=O)CCC(NC(=O)C(Cc1ccccc1)NC(=O)OCc1ccccc1)C(=O)OCC (stereo not drawn) (Cbz-Phe-Glu(OEt)-OEt; configuration not given here) .
OUT: 20.7 µM (inactive)

IN: In one line, give reported GI50 of the entry `COc1ccc(-c2c3c(nc4nc(SC)nc(SC)c24)CCCC3)cc1OC` .
OUT: > 100 µM (inactive)

IN: In one line, give reported GI50 of the entry `COc1cc2c(cc1OC)C(c1ccccc1CCCCl)=NCC2` .
OUT: 93.1 µM (inactive)
